Molecular target: 5-HT2A receptor (Homo sapiens)
Sequence (P28223 whole entry): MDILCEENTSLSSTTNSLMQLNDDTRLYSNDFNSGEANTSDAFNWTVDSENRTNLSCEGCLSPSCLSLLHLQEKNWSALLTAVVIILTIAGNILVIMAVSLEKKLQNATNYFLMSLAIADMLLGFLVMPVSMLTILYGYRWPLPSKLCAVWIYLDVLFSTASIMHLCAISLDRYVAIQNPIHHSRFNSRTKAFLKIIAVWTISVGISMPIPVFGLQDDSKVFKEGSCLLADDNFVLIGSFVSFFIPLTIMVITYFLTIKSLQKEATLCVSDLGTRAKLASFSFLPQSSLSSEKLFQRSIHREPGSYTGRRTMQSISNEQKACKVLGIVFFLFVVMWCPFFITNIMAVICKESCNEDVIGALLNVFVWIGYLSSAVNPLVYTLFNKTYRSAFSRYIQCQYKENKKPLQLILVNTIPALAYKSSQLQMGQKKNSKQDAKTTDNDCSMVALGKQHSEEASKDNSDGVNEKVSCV
Experiment: 5-HT2AR calcium flux activation assay
Type: cell-based
Design: expressed in transfected cells; host or cells: HEK293
Settings: HEK293 cells stably expressing human 5-HT2A receptor, FLIPR, Fluo-4; read-out: EC50
pEC50: −log10 of the molar value.
Could you label it rule met if measured pEC50 is 8 or higher, and rule not met otherwise?

Record excerpt, results attached:
[[record]]
compound = "Cc1nonc1CCCN1CCC(c2c[nH]c3ccccc23)C1 (centres unmarked) [Compound 54]"
target_of_assay = "5-HT2A receptor (Homo sapiens)"
group_label = "rule not met"

[[record]]
compound = "Cc1nc(C)n(CCCN2CCC(c3c[nH]c4ccccc34)C2)n1 (centres unmarked) [Compound 122]"
target_of_assay = "5-HT2A receptor (Homo sapiens)"
group_label = "rule not met"

[[record]]
compound = "Cc1cc(CCN2CCC(c3c[nH]c4cccc(F)c34)CC2)n[nH]1 [reference compound]"
target_of_assay = "5-HT2A receptor (Homo sapiens)"
group_label = "rule not met"

[[record]]
compound = "Cc1cnn(CCCN2CCC(c3c[nH]c4cccc(O)c34)C2)n1 (centres unmarked) [Compound 187]"
target_of_assay = "5-HT2A receptor (Homo sapiens)"
group_label = "rule met"

[[record]]
compound = "Cn1cc(CCCN2CCC(c3c[nH]c4cccc(O)c34)C2)cn1 (centres unmarked) [Compound 60]"
target_of_assay = "5-HT2A receptor (Homo sapiens)"
group_label = "rule not met"

[[record]]
compound = "Oc1cccc2[nH]cc([C@@H]3CCN(CCCn4nccn4)C3)c12 [Compound 182]"
target_of_assay = "5-HT2A receptor (Homo sapiens)"
group_label = "rule not met"

[[record]]
compound = "c1ccc2c(C3CCN(CCCc4ncon4)C3)c[nH]c2c1 (centres unmarked) [Compound 49]"
target_of_assay = "5-HT2A receptor (Homo sapiens)"
group_label = "rule not met"

[[record]]
compound = "c1ccc2c([C@H]3CCN(CCCc4ncon4)C3)c[nH]c2c1 [Compound 171]"
target_of_assay = "5-HT2A receptor (Homo sapiens)"
group_label = "rule not met"


QUERY: Hi team, for c1ccc2c(C3CCN(CCCn4nccn4)C3)c[nH]c2c1 (centres unmarked) [Compound 125] , is the recorded pEC50 at or above 8?
RESULT: rule not met

QUERY: Hi team, for Cc1nn(CCCN2CCC(c3c[nH]c4cccc(O)c34)C2)nc1C (racemic) [Compound 127] , is the recorded pEC50 at or above 8?
RESULT: rule met
